Test system: HIV-1IIIB
assay-info: microbe, parasite or virus in culture
Assay type: cell-based, Human Immunodeficiency Virus type-1 (HIV-1)
condition-label: Human immunodeficiency virus 1, MT4, read-out: EC50 HIV-1IIIB
Documented EC50 across a set of compounds

compound	assay-readout	result
COc1ccc(C(=O)Nc2ccc(-n3nc4cc(Cl)c(Cl)cc4n3)cc2)cc1	EC50	> 100 µM

Input line: Name the reported EC50 value associated with the compound Cc1ccc(NC(=O)Nc2ccc(-n3nc4cc(Cl)c(Cl)cc4n3)cc2)cc1 [10f]
Output line: > 100 µM

Input line: Name the reported EC50 value associated with the compound O=C(NCc1ccccc1)Nc1ccc(-n2nc3cc(Cl)c(Cl)cc3n2)cc1 [10j]
Output line: > 100 µM

Input line: Name the reported EC50 value associated with the compound O=C1Nc2ccc(Cl)cc2[C@@](C#CC2CC2)(C(F)(F)F)O1 [EFV, Efavirenz, reference compound]
Output line: 0.002 µM

Input line: Name the reported EC50 value associated with the compound CCNC(=O)Nc1ccc(-n2nc3cc(Cl)c(Cl)cc3n2)cc1 [10a]
Output line: > 100 µM

Input line: Name the reported EC50 value associated with the compound O=C(Nc1ccc(Cl)cc1)Nc1ccc(-n2nc3cc(Cl)c(Cl)cc3n2)cc1 [10h]
Output line: > 100 µM

Input line: Name the reported EC50 value associated with the compound O=C(Nc1ccc(-n2nc3cc(Cl)c(Cl)cc3n2)cc1)NC1CCCCC1 [10d]
Output line: > 100 µM

====

assay-info: Cytotoxicity, MTT method, Vero-76 cells
condition-label: African green monkey (Cercopithecus aethiops), Vero-76 cells (mock-infected)
assay-readout: CC50

Input line: Name the reported CC50 value associated with the compound Cc1cc(CCCOc2c(C)cc(-c3noc(C(F)(F)F)n3)cc2C)on1 [PCL, Pleconaril, reference compound]
Output line: > 100 µM

====

assay-info: Cytotoxicity, MTT method, MT-4 cells
condition-label: human
Documented CC50 across a set of compounds

compound	result
Cc1ccc(C(=O)Nc2ccc(-n3nc4cc(Cl)c(Cl)cc4n3)cc2)cc1	> 100 µM

Input line: Name the reported CC50 value associated with the compound CCC(=O)Nc1ccc(-n2nnc3cc(Cl)c(Cl)cc32)cc1
Output line: 28 µM

Input line: Name the reported CC50 value associated with the compound COc1cc(C(=O)Nc2ccc(-n3nnc4cc(Cl)c(Cl)cc43)cc2)cc(OC)c1OC
Output line: 77 µM

Input line: Name the reported CC50 value associated with the compound CCC(=O)Nc1ccc(-n2nc3cc(Cl)c(Cl)cc3n2)cc1
Output line: > 100 µM

Input line: Name the reported CC50 value associated with the compound O=C(Nc1ccccc1)Nc1ccc(-n2nc3cc(Cl)c(Cl)cc3n2)cc1 [10e]
Output line: > 100 µM

Input line: Name the reported CC50 value associated with the compound N#Cc1ccc(C(=O)Nc2ccc(-n3nc4cc(Cl)c(Cl)cc4n3)cc2)cc1
Output line: > 100 µM

Input line: Name the reported CC50 value associated with the compound O=C(Nc1ccc(Cl)cc1)Nc1ccc(-n2nc3cc(Cl)c(Cl)cc3n2)cc1 [10h]
Output line: > 100 µM

Input line: Name the reported CC50 value associated with the compound CCCC(=O)N(C(=O)CCC)c1ccc(-n2nc3cc(Cl)c(Cl)cc3n2)cc1
Output line: 24 µM

====

Documented CC50 at 5 days across a set of compounds
assay-info: Cytotoxicity, MTT method, Vero-76 cells
condition-label: African green monkey (Cercopithecus aethiops)

Look over these answered cases.
compound	assay-readout	result
O=C(Nc1ccc(-n2nc3cc(Cl)c(Cl)cc3n2)cc1)Nc1cccc2ccccc12 [10k]	CC50 at 5 days	> 100 µM
O=C(NCc1ccccc1)Nc1ccc(-n2nc3cc(Cl)c(Cl)cc3n2)cc1 [10j]	CC50 at 5 days	> 100 µM
O=C(Nc1ccc(-n2nnc3cc(Cl)c(Cl)cc32)cc1)c1ccccc1	CC50 at 5 days	> 100 µM
O=C(Nc1ccc(-n2nc3cc(Cl)c(Cl)cc3n2)cc1)c1ccc(C(F)(F)F)cc1	CC50 at 5 days	> 100 µM
O=C(Nc1ccc(-n2nc3cc(Cl)c(Cl)cc3n2)cc1)c1ccc(Cl)cc1	CC50 at 5 days	80 µM

Input line: Name the reported CC50 at 5 days value associated with the compound COc1ccc(C(=O)Nc2ccc(-n3nnc4cc(Cl)c(Cl)cc43)cc2)cc1
Output line: > 100 µM

Input line: Name the reported CC50 at 5 days value associated with the compound Cc1ccc(C(=O)Nc2ccc(-n3nnc4cc(Cl)c(Cl)cc43)cc2)cc1
Output line: > 100 µM

Input line: Name the reported CC50 at 5 days value associated with the compound COc1cc(C(=O)Nc2ccc(-n3nnc4cc(Cl)c(Cl)cc43)cc2)cc(OC)c1OC
Output line: 90 µM

Input line: Name the reported CC50 at 5 days value associated with the compound O=C(Nc1ccc(-n2nnc3cc(Cl)c(Cl)cc32)cc1)c1ccc([N+](=O)[O-])cc1
Output line: > 100 µM

Input line: Name the reported CC50 at 5 days value associated with the compound CCC(=O)N(C(=O)CC)c1ccc(-n2nc3cc(Cl)c(Cl)cc3n2)cc1
Output line: > 100 µM

Input line: Name the reported CC50 at 5 days value associated with the compound CCCC(=O)Nc1ccc(-n2nnc3cc(Cl)c(Cl)cc32)cc1
Output line: 10 µM

Input line: Name the reported CC50 at 5 days value associated with the compound Nc1ccc(-n2nc3cc(Cl)c(Cl)cc3n2)cc1
Output line: > 100 µM

Input line: Name the reported CC50 at 5 days value associated with the compound CC(=O)Nc1ccc(-n2nnc3cc(Cl)c(Cl)cc32)cc1
Output line: 30 µM

Input line: Name the reported CC50 at 5 days value associated with the compound O=C(Nc1ccc(F)cc1)Nc1ccc(-n2nc3cc(Cl)c(Cl)cc3n2)cc1 [10i]
Output line: > 100 µM

Input line: Name the reported CC50 at 5 days value associated with the compound CC(=O)N(C(C)=O)c1ccc(-n2nc3cc(Cl)c(Cl)cc3n2)cc1
Output line: > 100 µM

Input line: Name the reported CC50 at 5 days value associated with the compound O=C(Nc1ccc(-n2nnc3cc(Cl)c(Cl)cc32)cc1)c1ccc(Cl)cc1
Output line: > 100 µM

Input line: Name the reported CC50 at 5 days value associated with the compound O=C(Nc1ccc(-n2nc3cc(Cl)c(Cl)cc3n2)cc1)c1ccc([N+](=O)[O-])cc1
Output line: > 100 µM

Input line: Name the reported CC50 at 5 days value associated with the compound N#Cc1ccc(C(=O)Nc2ccc(-n3nnc4cc(Cl)c(Cl)cc43)cc2)cc1
Output line: > 100 µM

Input line: Name the reported CC50 at 5 days value associated with the compound CCCC(=O)N(C(=O)CCC)c1ccc(-n2nc3cc(Cl)c(Cl)cc3n2)cc1
Output line: > 100 µM

====

Tested on: RSV
assay-info: microbe, parasite or virus in culture
Assay type: cell-based, Human Respiratory Syncytial Virus (RSV) strain A2
condition-label: human respiratory syncytial virus, Vero 76, read-out: EC50 RSV
Documented log10 of EC50 across a set of compounds
Please note: log10 values; quantity EC50; unit µM.

compound	log10 of EC50
N#Cc1ccc(C(=O)Nc2ccc(-n3nc4cc(Cl)c(Cl)cc4n3)cc2)cc1 [8h]	1.78

Input line: Name the reported log10 of EC50 value associated with the compound O=C(Nc1ccc(-n2nc3cc(Cl)c(Cl)cc3n2)cc1)c1ccc(Cl)cc1 [8f]
Output line: 1.30

Input line: Name the reported log10 of EC50 value associated with the compound CCCC(=O)N(C(=O)CCC)c1ccc(-n2nc3cc(Cl)c(Cl)cc3n2)cc1 [6f]
Output line: 0.78

Input line: Name the reported log10 of EC50 value associated with the compound Nc1ccc(-n2nnc3cc(Cl)c(Cl)cc32)cc1 [1a]
Output line: 1.30

Input line: Name the reported log10 of EC50 value associated with the compound CC(=O)Nc1ccc(-n2nnc3cc(Cl)c(Cl)cc32)cc1 [5a]
Output line: 0.48

Input line: Name the reported log10 of EC50 value associated with the compound O=C(Nc1ccc(-n2nnc3cc(Cl)c(Cl)cc32)cc1)c1ccc([N+](=O)[O-])cc1 [7e]
Output line: 1.11

====

Documented CC50 across a set of molecules
assay-info: in vitro
condition-label: cattle (Bos taurus)

Look over these answered cases.
molecule	result
Cc1ccc(C(=O)Nc2ccc(-n3nc4cc(Cl)c(Cl)cc4n3)cc2)cc1 [8b]	> 100 µM
COc1ccc(C(=O)Nc2ccc(-n3nc4cc(Cl)c(Cl)cc4n3)cc2)cc1 [8c]	> 100 µM
O=C(Nc1ccc(Cl)cc1)Nc1ccc(-n2nc3cc(Cl)c(Cl)cc3n2)cc1 [10h]	> 100 µM

Input line: Name the reported CC50 value associated with the molecule CC(=O)Nc1ccc(-n2nc3cc(Cl)c(Cl)cc3n2)cc1 [6a]
Output line: > 100 µM

Input line: Name the reported CC50 value associated with the molecule COc1cc(C(=O)Nc2ccc(-n3nc4cc(Cl)c(Cl)cc4n3)cc2)cc(OC)c1OC [8d]
Output line: > 100 µM

Input line: Name the reported CC50 value associated with the molecule CCCCNC(=O)Nc1ccc(-n2nc3cc(Cl)c(Cl)cc3n2)cc1 [10c]
Output line: > 100 µM

Input line: Name the reported CC50 value associated with the molecule O=C(Nc1ccc(-n2nnc3cc(Cl)c(Cl)cc32)cc1)c1ccccc1 [7a]
Output line: > 100 µM

Input line: Name the reported CC50 value associated with the molecule N#Cc1ccc(C(=O)Nc2ccc(-n3nc4cc(Cl)c(Cl)cc4n3)cc2)cc1 [8h]
Output line: > 100 µM

Input line: Name the reported CC50 value associated with the molecule CC(=O)N(C(C)=O)c1ccc(-n2nc3cc(Cl)c(Cl)cc3n2)cc1 [6d]
Output line: 100 µM

Input line: Name the reported CC50 value associated with the molecule O=C(NCc1ccccc1)Nc1ccc(-n2nc3cc(Cl)c(Cl)cc3n2)cc1 [10j]
Output line: > 100 µM

Input line: Name the reported CC50 value associated with the molecule Cc1ccc(C(=O)Nc2ccc(-n3nnc4cc(Cl)c(Cl)cc43)cc2)cc1 [7b]
Output line: > 100 µM

Input line: Name the reported CC50 value associated with the molecule O=C(Nc1ccc(-n2nnc3cc(Cl)c(Cl)cc32)cc1)c1ccc(Cl)cc1 [7f]
Output line: > 100 µM

Input line: Name the reported CC50 value associated with the molecule CCC(=O)Nc1ccc(-n2nc3cc(Cl)c(Cl)cc3n2)cc1 [6b]
Output line: > 100 µM

Input line: Name the reported CC50 value associated with the molecule CCC(=O)Nc1ccc(-n2nnc3cc(Cl)c(Cl)cc32)cc1 [5b]
Output line: > 100 µM

Input line: Name the reported CC50 value associated with the molecule COc1cc(C(=O)Nc2ccc(-n3nnc4cc(Cl)c(Cl)cc43)cc2)cc(OC)c1OC [7d]
Output line: > 100 µM

Input line: Name the reported CC50 value associated with the molecule COc1ccc(NC(=O)Nc2ccc(-n3nc4cc(Cl)c(Cl)cc4n3)cc2)cc1 [10g]
Output line: > 100 µM

Input line: Name the reported CC50 value associated with the molecule CCCC(=O)Nc1ccc(-n2nc3cc(Cl)c(Cl)cc3n2)cc1 [6c]
Output line: > 100 µM

Input line: Name the reported CC50 value associated with the molecule Nc1ccc(-n2nc3cc(Cl)c(Cl)cc3n2)cc1 [1b]
Output line: ≥ 100 µM

Input line: Name the reported CC50 value associated with the molecule O=C(Nc1ccc(-n2nc3cc(Cl)c(Cl)cc3n2)cc1)c1ccc(Cl)cc1 [8f]
Output line: > 100 µM

Input line: Name the reported CC50 value associated with the molecule O=C(Nc1ccc(-n2nc3cc(Cl)c(Cl)cc3n2)cc1)NC1CCCCC1 [10d]
Output line: > 100 µM
